# ASSAY: Tmax in fasted cynomolgus monkey at 2.8 mg/kg, po
# Type: ADME, organism-based, Macaca fascicularis
# Design: dose 2.8 mg/kg, route oral
# COND: in vivo
REPORTED_METRIC: Tmax (h)
Answers are plain numbers, in h.

Param item = CC(C)c1ccc(Cc2ccc3c(c2)[C@]2(OC3)O[C@H](CO)[C@@H](O)[C@H](O)[C@H]2O)cc1 ; retrieve measured Tmax.
1.75

All figures here come from ChEMBL document CHEMBL2169783.
